Cited source: ChEMBL document CHEMBL1671829

Measured Target: KiSS-1 receptor (Homo sapiens)
Sequence (Q969F8 whole entry): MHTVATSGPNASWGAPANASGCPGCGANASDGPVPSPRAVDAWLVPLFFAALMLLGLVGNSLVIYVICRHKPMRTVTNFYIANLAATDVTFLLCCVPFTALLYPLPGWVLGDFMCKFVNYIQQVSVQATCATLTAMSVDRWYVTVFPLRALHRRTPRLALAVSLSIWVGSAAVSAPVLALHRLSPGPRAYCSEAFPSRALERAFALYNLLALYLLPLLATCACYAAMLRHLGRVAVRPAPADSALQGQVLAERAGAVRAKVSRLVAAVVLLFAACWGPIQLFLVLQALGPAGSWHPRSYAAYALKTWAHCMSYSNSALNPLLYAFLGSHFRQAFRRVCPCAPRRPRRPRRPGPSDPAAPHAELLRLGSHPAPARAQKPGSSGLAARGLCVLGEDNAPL
Experiment Description: Displacement of [125I]kisspeptin-15 from GPR54
pIC50: −log10 of the molar value.
Property Label: pIC50

Q: Field request: pIC50 | item: H-SLAAPQRF-OH
Result: < 4.52

----------
Property Label: pIC50
Interpret pIC50 as the negative base-10 log of the concentration measured in mol/L.

Q: API: value(readout= pIC50, system= Neuropeptide FF receptor 1 (Homo sapiens), query= CC(C)C[C@H](NC(=O)CNC(=O)[C@H](Cc1ccccc1)NC(=O)c1ccc(F)cc1)C(=O)N[C@@H](CCCN=C(N)N)C(=O)N[C@@H](Cc1c[nH]c2ccccc12)C(N)=O )
Result: 6.80

----------
Measured Target: Neuropeptide FF receptor 2 (Homo sapiens, UniProt Q9Y5X5)
Sequence (Q9Y5X5 whole entry): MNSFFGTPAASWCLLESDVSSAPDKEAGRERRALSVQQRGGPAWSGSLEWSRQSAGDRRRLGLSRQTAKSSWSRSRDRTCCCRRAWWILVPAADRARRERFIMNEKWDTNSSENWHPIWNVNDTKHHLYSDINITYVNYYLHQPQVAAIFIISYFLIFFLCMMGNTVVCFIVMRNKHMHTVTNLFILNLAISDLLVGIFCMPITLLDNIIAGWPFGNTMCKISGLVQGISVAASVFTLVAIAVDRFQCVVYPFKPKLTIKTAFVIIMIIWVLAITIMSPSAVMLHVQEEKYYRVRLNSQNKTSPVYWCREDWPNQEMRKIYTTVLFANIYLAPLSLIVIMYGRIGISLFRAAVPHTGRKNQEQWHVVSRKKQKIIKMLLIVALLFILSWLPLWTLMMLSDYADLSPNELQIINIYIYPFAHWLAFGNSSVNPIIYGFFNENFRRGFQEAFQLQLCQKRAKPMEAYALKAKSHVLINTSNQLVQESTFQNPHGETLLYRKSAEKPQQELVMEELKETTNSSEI
Experiment Description: Displacement of (D-[125I]Tyr1, MePhe3)-NPFF from NPFFR2 after 2 hrs
Property Label: pIC50
Field pIC50 (float): negative decimal logarithm of the concentration in molar.

Q: Could you share which pIC50 value was measured for H-SLAAPQRF-OH ?
Result: 9.10

----------
Measured Target: Neuropeptide FF receptor 1 (Homo sapiens, UniProt Q9GZQ6)
Sequence (Q9GZQ6 whole entry): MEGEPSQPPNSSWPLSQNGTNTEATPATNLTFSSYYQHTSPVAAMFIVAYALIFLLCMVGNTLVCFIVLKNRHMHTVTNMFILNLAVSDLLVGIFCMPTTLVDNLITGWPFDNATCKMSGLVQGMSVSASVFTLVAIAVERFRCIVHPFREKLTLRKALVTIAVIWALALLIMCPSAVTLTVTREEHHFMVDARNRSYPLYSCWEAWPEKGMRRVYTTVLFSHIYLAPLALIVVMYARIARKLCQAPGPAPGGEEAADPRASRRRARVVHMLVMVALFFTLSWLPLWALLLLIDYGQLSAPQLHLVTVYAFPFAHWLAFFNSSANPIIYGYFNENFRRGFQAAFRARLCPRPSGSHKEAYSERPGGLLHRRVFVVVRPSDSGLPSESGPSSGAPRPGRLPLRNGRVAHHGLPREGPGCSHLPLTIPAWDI
Experiment Description: Displacement of (D-[125I]Tyr1, MePhe3)-NPFF from NPFFR1 after 2 hrs
Property Label: IC50 (nM)
Respond numerically; units are nM and should not be typed.

Q: # query: IC50 of entry H-SLAAPQRF-OH
Result: 1.9

----------
Read-out record for KiSS-1 receptor (Homo sapiens): IC50
The reply should be a number in µM, with the unit left off.

Q: Query for KiSS-1 receptor (Homo sapiens): what IC50 does the record show for NC(=O)[C@H](Cc1ccccc1)NC(=O)[C@H](CCCN=C(N)N)NC(=O)C12CC3CC(CC(C3)C1)C2 ?
Result: 0.83

Q: Which measured IC50 belongs to CN(C)c1cccc2c(S(=O)(=O)N3CCC[C@H]3C(=O)N[C@@H](CCC(N)=O)C(=O)N[C@@H](CCCNC(=N)N)C(=O)N[C@@H](Cc3ccccc3)C(N)=O)cccc12 , tested on KiSS-1 receptor (Homo sapiens)?
Result: 16
